# maps each entry to its pIC50
Tested on: HCT-116
measurement-description: Anticancer activity against human HCT-116 cells assessed as cell growth inhibition
Type: functional, cell-based
pIC50: −log10 of the molar value.

[
  {
    "compound": "Oc1ccc(/C=C\\c2cc(O)cc(O)c2)cc1 [CIS-RESVERATROL]",
    "pIC50": 4.60
  },
  {
    "compound": "Oc1ccc(/C=C/c2cc(O)cc(O)c2)cc1",
    "pIC50": 4.71
  },
  {
    "compound": "COc1ccc(/C=C/c2cc(OC)c(OC)c(OC)c2)cc1",
    "pIC50": 5.96
  },
  {
    "compound": "Oc1cc(O)cc(/C=C/c2ccc(O)c(O)c2)c1",
    "pIC50": 5.30
  },
  {
    "compound": "COc1ccc(/C=C/c2cc(OC)cc(OC)c2)cc1",
    "pIC50": 5.96
  }
]
